Entry source: ChEMBL document CHEMBL2311315

# test.system: Fatty-acid amide hydrolase 1 (Rattus norvegicus, UniProt P97612)
# Sequence (P97612 whole entry): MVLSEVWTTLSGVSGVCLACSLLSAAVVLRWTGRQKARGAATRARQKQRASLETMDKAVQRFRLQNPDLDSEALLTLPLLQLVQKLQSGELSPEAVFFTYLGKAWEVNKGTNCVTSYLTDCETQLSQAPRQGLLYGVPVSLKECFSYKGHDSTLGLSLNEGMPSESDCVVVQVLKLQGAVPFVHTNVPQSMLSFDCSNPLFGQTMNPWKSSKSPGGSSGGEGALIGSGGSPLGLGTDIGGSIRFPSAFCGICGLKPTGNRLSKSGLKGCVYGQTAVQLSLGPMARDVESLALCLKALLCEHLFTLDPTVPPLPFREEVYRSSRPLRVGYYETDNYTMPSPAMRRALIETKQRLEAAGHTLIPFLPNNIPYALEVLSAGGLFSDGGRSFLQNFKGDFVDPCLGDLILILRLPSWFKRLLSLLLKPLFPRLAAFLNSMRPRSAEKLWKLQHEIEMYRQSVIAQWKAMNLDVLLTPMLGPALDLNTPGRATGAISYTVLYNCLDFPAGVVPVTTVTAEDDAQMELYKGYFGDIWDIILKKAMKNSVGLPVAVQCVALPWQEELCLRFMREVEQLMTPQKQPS
# procedure.summary: Inhibition of FAAH-mediated [3H]anandamide hydrolysis in rat brain homogenate assessed as [3H]ethanolamine production incubated for 45 mins prior to substrate addition measured after 10 mins by liquid scintillation counting analysis
# Format: tissue-based
Each entry below carries its recorded IC50.
Unit nM implied. Number only.

chemical.string	IC50, nM
O=C(NC1CCCCC1)Oc1ccc(O)c(-c2ccccc2)c1	9.4

Turning to the following compound.
What measured IC50 is associated with CCCCCCNC(=O)Oc1cccc(C2=NCCO2)c1 on Fatty-acid amide hydrolase 1 (Rattus norvegicus, UniProt P97612)?
1.2

====

# test.system: UniProt:P97612
# procedure.summary: Inhibition of FAAH-mediated [3H]anandamide hydrolysis in rat brain homogenate assessed as [3H]ethanolamine production at 100 nM incubated for 60 mins prior to substrate addition measured after 10 mins by liquid scintillation counting analysis relative to control
# Assay type: tissue-based
observation.type: inhibition (%)
Number only, in %; omit the unit.

May I ask what inhibition has been recorded for CN1CCC(NC(=O)Oc2cccc(-c3ccccc3)c2)CC1 ?
13

Suppose we examine the compound O=C(NC1CCCC1)Oc1ccc(O)c(-c2ccccc2)c1 ; what inhibition value has been reported?
99

What does the record list as inhibition for O=C(NC1CCCC1)Oc1cccc(C2=NCCO2)c1 ?
99

Data request, read-out inhibition, for CN1CCC(NC(=O)Oc2ccc(O)c(-c3ccccc3)c2)CC1
12
